ASSAY_SYSTEM: CaMKII (human CaMKIIδ, form used for the solution kinetics not stated) (human) (UniProt Q13557)
MEASURED_METRIC: Km of peptide phosphorylation, standard solution kinetics (µM)

[I] PLARTLSVAGLPGKK [Syntide peptide]
[II] RNKLRRQHSYDTFVD [GluN2B_(S1303) peptide]
Lower value for measured Km of peptide phosphorylation, standard solution kinetics? Options: I , II // output: label of the selected item
II
(II: 4.6 µM, I: 43.5 µM)
